All values here come from patent US20250179027A1.

# measurement-target: phosphorylated BTK Y223 in NIH/3T3 BTK WT cells (Homo sapiens, UniProt Q06187)
# Sequence (Q06187 whole entry): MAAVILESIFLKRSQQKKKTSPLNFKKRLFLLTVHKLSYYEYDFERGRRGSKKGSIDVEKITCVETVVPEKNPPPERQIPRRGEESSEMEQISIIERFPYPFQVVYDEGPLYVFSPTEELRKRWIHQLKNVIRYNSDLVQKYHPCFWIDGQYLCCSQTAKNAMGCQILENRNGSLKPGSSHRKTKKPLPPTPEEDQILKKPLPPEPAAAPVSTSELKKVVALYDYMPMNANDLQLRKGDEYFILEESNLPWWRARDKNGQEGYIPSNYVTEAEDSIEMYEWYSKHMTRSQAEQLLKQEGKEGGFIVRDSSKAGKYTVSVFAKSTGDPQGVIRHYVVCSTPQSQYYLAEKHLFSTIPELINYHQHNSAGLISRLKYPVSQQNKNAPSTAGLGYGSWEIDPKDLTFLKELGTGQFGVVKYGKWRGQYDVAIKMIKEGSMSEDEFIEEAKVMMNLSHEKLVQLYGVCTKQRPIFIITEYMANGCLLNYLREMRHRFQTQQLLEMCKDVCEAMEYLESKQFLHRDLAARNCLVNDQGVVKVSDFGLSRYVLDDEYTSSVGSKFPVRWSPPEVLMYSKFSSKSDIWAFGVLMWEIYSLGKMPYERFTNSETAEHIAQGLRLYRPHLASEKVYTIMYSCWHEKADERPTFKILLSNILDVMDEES
# protocol-summary: Phosphor-BTK(Y223) assay, NIH/3T3 BTK WT cells
# assay-setup: phosphorylated BTK Y223, NIH/3T3 BTK WT cells; read-out: NIH/3T3 BTK-WT pBTK IC50
reported-property: IC50

Consider the worked cases shown below.
COc1ccc(F)cc1C(=O)NCc1ccc(-c2nn(C3CCCC(C)(O)C3)c3ncnc(N)c23)cc1 (single isomer, unassigned) [Example 27] = ≤ 25 nM
COc1ccc(F)cc1C(=O)NCc1ccc(-c2nc(C3CCCC(O)C3)n3ccnc(N)c23)cc1 (stereo not drawn) [Example 20] = ≤ 25 nM
COc1ccc(F)cc1C(=O)NCc1ccc(-c2nn([C@@H]3C=C[C@@H](O)C3)c3ncnc(N)c23)cc1 (single isomer, unassigned) [Example 49] = ≤ 25 nM

Please give IC50 for each item listed below.
1. COc1ccc(F)cc1C(=O)NCc1ccc(-c2nn(C3CCCC(C)(O)C3)c3ncnc(N)c23)cc1 (single isomer, unassigned) [Example 25]
2. COc1ccc(F)cc1C(=O)NCc1ccc(-c2cc(C3CCC(CO)OC3)n3ncnc(N)c23)cc1 (single isomer, unassigned) [Example 59]

1: 25 to 50 nM; 2: 25 to 50 nM

Form entry - test system: phosphorylated BTK Y223 in NIH/3T3 BTK WT cells (Homo sapiens, UniProt Q06187); read-out: IC50; compound: COc1ccc(F)cc1C(=O)NCc1ccc(-c2nn(C3CCCC(O)C3)c3ncnc(N)c23)cc1 (single isomer, unassigned) [Example 8] ≤ 25 nM

###

# measurement-target: phosphorylated BTK Y223 in NIH/3T3 BTK WT cells (Homo sapiens, UniProt Q06187)
# protocol-summary: Phosphor-BTK(Y223) assay, NIH/3T3 BTK WT cells
# assay-setup: phosphorylated BTK Y223, NIH/3T3 BTK WT cells; read-out: NIH/3T3 BTK-WT pBTK IC50
pIC50: −log10 of the molar value.
reported-property: pIC50

Consider the worked cases shown below.
COc1ccc(F)cc1C(=O)NCc1ccc(-c2nn(C3CCC(O)C3)c3ncnc(N)c23)cc1 (single isomer, unassigned) [Example 33] = ≥ 7.60
COc1ccc(F)cc1C(=O)NCc1ccc(-c2nn([C@H]3CCC[C@H](O)C3)c3ncnc(N)c23)cc1 (racemic) [Example 9] = ≥ 7.60
COc1ccc(F)cc1C(=O)NCc1ccc(-c2nn([C@@H]3C=C[C@@H](O)C3)c3ncnc(N)c23)cc1 (single isomer, unassigned) [Example 38] = ≥ 7.60

Please give pIC50 for each item listed below.
1. COc1ccc(F)cc1C(=O)NCc1ccc(-c2cc(C3CCC(CO)OC3)n3ncnc(N)c23)cc1 (single isomer, unassigned) [Example 62]
2. COc1ccc(F)cc1C(=O)NCc1ccc(-c2nc(C3CCCC(O)C3)n3ccnc(N)c23)cc1 (single isomer, unassigned) [Example 22]

["≥ 7.60", "≥ 7.60"]

###

# measurement-target: phosphorylated BTK Y223 in NIH/3T3 BTK WT cells (Homo sapiens)
# protocol-summary: Phosphor-BTK(Y223) assay, NIH/3T3 BTK WT cells
# assay-setup: phosphorylated BTK Y223, NIH/3T3 BTK WT cells; read-out: NIH/3T3 BTK-WT pBTK IC50
Provide the recorded IC50 for the entries that follow.

COc1ccc(F)cc1C(=O)NCc1ccc(-c2nn(C3CCCC(C)(O)C3)c3ncnc(N)c23)cc1 (single isomer, unassigned) [Example 28] = ≤ 25 nM

Please give IC50 for each item listed below.
1. COc1ccc(F)cc1C(=O)NCc1ccc(-n2cc(C3CCC(CO)OC3)c3ncnc(N)c32)cc1 (single isomer, unassigned) [Example 52]
2. COc1ccc(F)cc1C(=O)NCc1ccc(-c2nn(C3CCC(O)C3)c3ncnc(N)c23)cc1 (stereo not drawn) [Example 32]

1. 50 to 100 nM
2. ≤ 25 nM
